Each recorded value in this set is attributed to patent US11053204B2.

tested on: galium (catchweed bedstraw, Galium aparine); test: Test C preemergence, plant response rating; format: in vivo; details: 125 g ai/ha, scale of 0 to 100
Measured parameter: Plant response rating, Galium

Request: Can you share its Plant response rating, Galium? I mean this compound: O=C(CCCC(F)(F)F)c1c(Br)cccc1Oc1ncc(Cl)cn1
Response: 98

Request: Can you share its Plant response rating, Galium? I mean this compound: C=CCCOC(=O)c1c(Br)cccc1Oc1ncc(Cl)cn1
Response: 100

Request: Can you share its Plant response rating, Galium? I mean this compound: FC(F)(F)CCCCc1c(Br)cccc1Oc1ncc(Cl)cn1
Response: 5

Request: Can you share its Plant response rating, Galium? I mean this compound: N#Cc1cccc(Oc2ncc(Cl)cn2)c1CCCCC(F)(F)F
Response: 100
